Origin of measurements: patent US10925971B2

- Target desc: T1, mouse PRLR on HEK293/mPRLR cells (Mus musculus, UniProt Q08501)
- T1 construct: HA; expressed in transfected cells; host or cells: HEK293
- T1 sequence (Q08501 20-608): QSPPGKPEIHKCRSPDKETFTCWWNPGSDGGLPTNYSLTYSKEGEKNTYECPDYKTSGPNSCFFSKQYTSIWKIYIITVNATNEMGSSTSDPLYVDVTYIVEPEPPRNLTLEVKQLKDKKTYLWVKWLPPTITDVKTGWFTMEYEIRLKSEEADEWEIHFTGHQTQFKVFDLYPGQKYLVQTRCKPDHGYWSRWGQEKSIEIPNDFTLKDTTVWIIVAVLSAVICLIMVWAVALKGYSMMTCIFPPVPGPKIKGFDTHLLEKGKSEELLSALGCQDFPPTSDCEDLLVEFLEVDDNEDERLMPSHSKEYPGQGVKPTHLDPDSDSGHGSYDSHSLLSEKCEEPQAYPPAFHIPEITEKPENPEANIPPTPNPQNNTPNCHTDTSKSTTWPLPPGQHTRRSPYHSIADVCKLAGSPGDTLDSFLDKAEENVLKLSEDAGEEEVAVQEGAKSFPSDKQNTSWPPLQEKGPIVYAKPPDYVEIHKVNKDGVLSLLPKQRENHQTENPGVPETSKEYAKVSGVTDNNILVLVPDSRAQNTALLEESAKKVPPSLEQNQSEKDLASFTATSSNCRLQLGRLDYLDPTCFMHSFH
- Protocol notes: FACS cell surface binding
Exercise: for every item that follows, state its recorded FACS Cell Binding.

I would be grateful if you could share the reported FACS Cell Binding for H1H6801P: fully human anti-PRLR antibody, human IgG1 Fc; HCVR/LCVR SEQ ID NOs 210/218 (antibody, V domains shown) VH: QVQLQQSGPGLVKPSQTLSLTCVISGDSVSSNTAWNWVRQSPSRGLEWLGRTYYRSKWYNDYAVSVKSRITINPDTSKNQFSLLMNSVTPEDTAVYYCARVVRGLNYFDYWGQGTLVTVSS VL: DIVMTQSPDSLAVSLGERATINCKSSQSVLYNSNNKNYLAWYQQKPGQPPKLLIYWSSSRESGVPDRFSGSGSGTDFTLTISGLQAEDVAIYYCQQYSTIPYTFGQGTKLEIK .
56 Fold Above Background

I would be grateful if you could share the reported FACS Cell Binding for H1H6803P: fully human anti-PRLR antibody, human IgG1 Fc; HCVR/LCVR SEQ ID NOs 226/234 (antibody, V domains shown) VH: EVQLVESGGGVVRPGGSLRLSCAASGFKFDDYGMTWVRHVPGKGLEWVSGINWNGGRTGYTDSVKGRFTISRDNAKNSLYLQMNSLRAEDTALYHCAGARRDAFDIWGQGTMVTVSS VL: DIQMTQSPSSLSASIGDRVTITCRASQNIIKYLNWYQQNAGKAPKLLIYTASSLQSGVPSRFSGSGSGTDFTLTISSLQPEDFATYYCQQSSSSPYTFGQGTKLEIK .
1 Fold Above Background

I would be grateful if you could share the reported FACS Cell Binding for H1H6785P: fully human anti-PRLR antibody, human IgG1 Fc; HCVR/LCVR SEQ ID NOs 98/106 (antibody, V domains shown) VH: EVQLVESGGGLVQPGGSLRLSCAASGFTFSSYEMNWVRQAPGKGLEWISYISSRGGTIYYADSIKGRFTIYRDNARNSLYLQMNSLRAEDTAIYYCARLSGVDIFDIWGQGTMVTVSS VL: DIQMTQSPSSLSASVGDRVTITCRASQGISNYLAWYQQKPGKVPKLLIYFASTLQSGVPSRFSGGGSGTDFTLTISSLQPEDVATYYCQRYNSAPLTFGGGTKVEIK .
2 Fold Above Background
